target: T1, Cynomolgus monkey BCMA (cynomolgus monkey); test: SPR, IgG immobilised, cyno BCMA analyte
T1 construct: Soluble analyte in SPR; also called cyBCMA; Cyno BCMA
# koff values compiled below
Answer with the value and then the unit.

- C01_Rd4_0.6nM_C27 (antibody, V domains shown, IgG) VH: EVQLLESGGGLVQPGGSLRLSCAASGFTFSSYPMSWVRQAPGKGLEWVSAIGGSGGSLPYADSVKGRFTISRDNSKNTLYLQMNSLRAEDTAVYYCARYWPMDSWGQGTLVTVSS VL: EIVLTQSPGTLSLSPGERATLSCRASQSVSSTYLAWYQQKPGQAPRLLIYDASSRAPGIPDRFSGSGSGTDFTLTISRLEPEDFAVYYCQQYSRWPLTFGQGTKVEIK: 0.00285 s⁻¹
- COMBO_Rd4_6nM_C02 (antibody, V domains shown, IgG) VH: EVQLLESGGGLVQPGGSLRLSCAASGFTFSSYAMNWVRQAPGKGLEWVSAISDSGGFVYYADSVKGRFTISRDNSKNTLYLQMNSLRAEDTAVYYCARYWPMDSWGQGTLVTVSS VL: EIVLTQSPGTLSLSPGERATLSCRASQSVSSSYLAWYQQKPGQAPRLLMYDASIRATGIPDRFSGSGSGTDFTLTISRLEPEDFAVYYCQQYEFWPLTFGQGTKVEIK: 0.00136 s⁻¹

The reported value for COMBO_Rd4_6nM_C25 (antibody, V domains shown, IgG) VH: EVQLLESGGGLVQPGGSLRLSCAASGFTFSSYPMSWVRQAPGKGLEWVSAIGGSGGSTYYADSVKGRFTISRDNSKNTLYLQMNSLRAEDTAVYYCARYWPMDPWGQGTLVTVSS VL: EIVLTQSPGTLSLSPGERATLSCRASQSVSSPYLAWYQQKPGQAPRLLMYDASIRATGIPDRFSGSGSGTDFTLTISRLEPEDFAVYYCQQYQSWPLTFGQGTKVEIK in terms of koff is 0.000226 s⁻¹

Sourced from patent US20160297884A1
